Recorded values, source patent US20250222128A1.

- Tested on: EBC-1 (lung squamous cell carcinoma)
- Protocol text: In vitro cytotoxicity (cell growth inhibition, CellTiter-Glo)
- Type: cell-based
- Study conditions: Homo sapiens, EBC-1, 96 h
Readout name: pEC50
# pEC50 is unitless: minus log10 of the molar concentration; print number only

// lookup pEC50 for CC[C@H](C)[C@@H]([C@@H](CC(=O)N1CCC[C@H]1[C@H](OC)[C@@H](C)C(=O)NS(=O)(=O)c1ccc(N)cc1)OC)N(C)C(=O)[C@@H](NC(=O)[C@H](C(C)C)N(C)C)C(C)C [Compound 1]
7.58

----------
- Test system: H292 (lung carcinoma)
- Protocol text: In vitro cytotoxicity (cell growth inhibition, CellTiter-Glo)
- Type: cell-based
- Study conditions: Homo sapiens, NCI-H292, read-out: EC50 (nM) - DAR corrected, H292; 4-5 days; Table 6.1
- Description: The cell growth inhibition (cytotoxicity) capabilities of anti-cMet ADCs comprising variant v17427 (HetFc, unmodified hinge) conjugated to Drug-Linker 001 or MCvcPABC-MMAE by stochastic cysteine conjugation at an average DAR 4 were determined in a panel of four cMet-expressing cell lines as described below. […] Cytotoxicity was determined as described in Example 6 with treated cells (1,000 cells/well) being incubated for 4 days under standard culturing conditions (37° C./5% CO2). […]
Readout name: EC50 (nM)
Just the number please, in nM, no unit attached.

API: value(readout= EC50, system= H292 (lung carcinoma), query= CC[C@H](C)[C@@H]([C@@H](CC(=O)N1CCC[C@H]1[C@H](OC)[C@@H](C)C(=O)NS(=O)(=O)c1ccc(N)cc1)OC)N(C)C(=O)[C@@H](NC(=O)[C@H](C(C)C)N(C)C)C(C)C )
22.2
